target: human E3 ligase component cereblon (CRBN) (Homo sapiens, UniProt Q96SW2); test: Cereblon (CRBN) target engagement, NanoBRET TE Intracellular E3 Ligase Assay in transfected HEK-293T cells; conditions: read-out: CRBN Binding EC50
Sequence (Q96SW2 whole entry): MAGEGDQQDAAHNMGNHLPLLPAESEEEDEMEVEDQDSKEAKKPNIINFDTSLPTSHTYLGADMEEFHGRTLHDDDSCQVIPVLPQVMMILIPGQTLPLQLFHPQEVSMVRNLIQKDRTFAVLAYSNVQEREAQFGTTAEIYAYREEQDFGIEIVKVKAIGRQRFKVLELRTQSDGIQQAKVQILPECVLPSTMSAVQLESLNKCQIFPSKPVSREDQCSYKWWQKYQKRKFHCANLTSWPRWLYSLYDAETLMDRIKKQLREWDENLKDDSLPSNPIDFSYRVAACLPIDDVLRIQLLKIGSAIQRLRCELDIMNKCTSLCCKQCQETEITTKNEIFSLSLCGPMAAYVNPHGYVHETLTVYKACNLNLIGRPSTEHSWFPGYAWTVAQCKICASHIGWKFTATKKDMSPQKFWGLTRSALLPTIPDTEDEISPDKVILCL
Sequence (Q16531 whole entry partner): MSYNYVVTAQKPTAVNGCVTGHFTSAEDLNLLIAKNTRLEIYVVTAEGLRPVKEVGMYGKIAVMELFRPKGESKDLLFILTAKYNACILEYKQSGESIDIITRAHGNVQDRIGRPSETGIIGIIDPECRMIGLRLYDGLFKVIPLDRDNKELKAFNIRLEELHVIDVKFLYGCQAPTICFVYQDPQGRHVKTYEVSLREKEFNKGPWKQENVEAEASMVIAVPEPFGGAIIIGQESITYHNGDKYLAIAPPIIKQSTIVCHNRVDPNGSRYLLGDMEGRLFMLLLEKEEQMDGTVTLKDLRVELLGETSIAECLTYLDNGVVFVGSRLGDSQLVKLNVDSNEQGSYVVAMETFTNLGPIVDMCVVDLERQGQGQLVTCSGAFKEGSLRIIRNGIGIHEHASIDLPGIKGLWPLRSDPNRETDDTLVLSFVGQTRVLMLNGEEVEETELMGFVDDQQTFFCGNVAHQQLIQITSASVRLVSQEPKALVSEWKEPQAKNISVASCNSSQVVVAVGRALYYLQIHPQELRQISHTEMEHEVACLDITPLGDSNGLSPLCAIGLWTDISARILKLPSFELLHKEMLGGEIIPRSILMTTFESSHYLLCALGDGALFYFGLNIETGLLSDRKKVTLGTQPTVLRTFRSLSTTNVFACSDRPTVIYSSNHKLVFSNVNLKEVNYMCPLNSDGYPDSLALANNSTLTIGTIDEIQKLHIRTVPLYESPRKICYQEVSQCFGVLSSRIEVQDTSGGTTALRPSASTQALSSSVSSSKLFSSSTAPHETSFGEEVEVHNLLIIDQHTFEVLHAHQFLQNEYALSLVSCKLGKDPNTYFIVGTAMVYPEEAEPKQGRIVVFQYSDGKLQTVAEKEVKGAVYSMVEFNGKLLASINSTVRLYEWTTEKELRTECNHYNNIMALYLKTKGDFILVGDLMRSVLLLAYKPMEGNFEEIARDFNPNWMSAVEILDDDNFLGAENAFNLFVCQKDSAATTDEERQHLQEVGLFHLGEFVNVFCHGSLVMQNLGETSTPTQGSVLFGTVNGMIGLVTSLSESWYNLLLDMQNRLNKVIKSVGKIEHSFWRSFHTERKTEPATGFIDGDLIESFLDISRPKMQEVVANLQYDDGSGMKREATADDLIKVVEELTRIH
pEC50: −log10 of the molar value.
PROPERTY MEASURED: pEC50

# count of solved cases: 4
COMPOUND	TGT	TEST VALUE
O=C1CCC(N2Cc3cc(O[C@H]4CCCC[C@@H]4N4CC(C5CCOCC5F)C4)ccc3C2=O)C(=O)N1 (stereo partly drawn)	human E3 ligase component cereblon (CRBN) (Homo sapiens, UniProt Q96SW2)	7.85
CC1(C(=O)N2CCC(C3CN([C@H]4CCCC[C@@H]4Oc4ccc5c(c4)CN(C4CCC(=O)NC4=O)C5=O)C3)CC2)COC1 (stereo partly drawn)	human E3 ligase component cereblon (CRBN) (Homo sapiens, UniProt Q96SW2)	7.17
O=C1CCC(N2Cc3cc(O[C@H]4CCCC[C@@H]4N4CC(c5ccncc5)C4)ccc3C2=O)C(=O)N1 (single isomer, unassigned)	human E3 ligase component cereblon (CRBN) (Homo sapiens, UniProt Q96SW2)	7.55
Cc1ccnc(C2CN([C@H]3CCCC[C@H]3Oc3ccc4c(c3)CN(C3CCC(=O)NC3=O)C4=O)C2)n1 (mixture of isomers)	human E3 ligase component cereblon (CRBN) (Homo sapiens, UniProt Q96SW2)	7.52

P = N#Cc1cc(C2CN([C@H]3CCCC[C@@H]3Oc3ccc4c(c3)CN(C3CCC(=O)NC3=O)C4=O)C2)ccn1 (mixture of isomers)
Q = O=C1CCC(N2Cc3cc(O[C@H]4CCCC[C@@H]4N4CC(c5ccc(C(F)(F)F)cn5)C4)ccc3C2=O)C(=O)N1 (mixture of isomers) [Compound 192-B]
Which item exceeds the other in pEC50, P or Q ? Answer format: the label of the selected item. Q
